From: PubChem BioAssay (NCI)

- Assay Overview: NCI Yeast Anticancer Drug Screen. Data for the mec2-1 strain (AID 157)
- Assay Context: S. cerevisiae mec2-1 strain, at 50.0 µM (retest, dose inferred, filed as 5.0), hits give high values
This is part of a sample that, as a whole, favours compounds with a hit. Of some 79,000 tested, about 15% had one in any assay.
Below, each of the compounds is paired with its reported growth inhibition value.

# Compound, Value Unit, growth inhibition
rows = [
    ("CCOc1ccnc2c(C)c3c([nH]c4ccccc43)c(C)c12", "%", 99),
    ("C[P+](c1ccccc1)(c1ccc(Cl)cc1)c1ccc(Cl)cc1", "%", 28),
    ("NCCCN1c2ccccc2Sc2ccc(Cl)cc21", "%", 58),
    ("O=[N+]([O-])c1ccc(/C(=C\\c2ccccc2)Cn2ccnc2)cc1", "%", 85),
    ("CCCCCC(Oc1ccc(Cl)cc1)C(=O)O (configuration not stated)", "%", 83),
    ("C[Si](C)c1cccc(Cl)c1", "%", 4),
    ("Cc1ccc(C)c2c3c([nH]c12)-c1ccccc1CC3", "%", 2),
    ("CCCCCC(C)(C)N=C=S", "%", 2),
    ("Cc1cc(N=O)c(NO)cc1C", "%", 29),
    ("COc1ccc(NC(=O)Nc2ccc(Cl)cc2)nn1", "%", -3),
    ("BrC(Br)([P+](c1ccccc1)(c1ccccc1)c1ccccc1)[P+](c1ccccc1)(c1ccccc1)c1ccccc1", "%", 41),
    ("CC(=O)N1C=C2CCC3c4ccccc4NC3C2CC1 (configuration not stated)", "%", 4),
]

====

- Assay Overview: NCI Yeast Anticancer Drug Screen. Data for the rad50 strain (AID 155);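 also: 0% = growth of vehicle-only cultures of the same strain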
- Assay Context: S. cerevisiae rad50 strain growth inhibition; at 50.0 µM
This is part of a sample that, as a whole, favours compounds with a hit. Of some 79,000 tested, about 15% had one in any assay. Calls of active or inactive are those of the source. Rule as the data show it: active = growth inhibition above about 70%; inactive = the rest.
Classes used: active, inactive

# Compound, Label Value
measured = [
    ("CCOC(=O)N1CCN(CCCCCCOc2ccc(C(C)(C)C)cc2)CC1", "active"),
    ("c1ccc(CCC2=Nc3ccccc3CO2)cc1", "inactive"),
    ("N#CSc1ccc2nc(NCO)sc2c1", "active"),
    ("CCCCCCC(O)(CCCCCC)CCCCCC", "active"),
    ("C=C1C(O)C2(O)OCC34C(CC5C(C)=CC(=O)C(O)C5(C)C23)OC(=O)C(OC(=O)C/C=C/CCCCCCCC)C14 (stereo unspecified)", "active"),
    ("C/C(=C\\N1CCN(c2ccc(Cl)cc2)C(C)C1)C(=O)c1ccccc1 (stereo unspecified)", "inactive"),
    ("COc1c(O)cc(C=O)cc1[N+](=O)[O-]", "inactive"),
    ("O=C(C(=O)c1ccc(Cc2ccc(C(=O)C(=O)c3ccccc3)cc2)cc1)c1ccccc1", "inactive"),
    ("C/C=C(\\CCC1NCCc2c1[nH]c1ccccc21)[Si](C)(C)C (stereo unspecified)", "active"),
    ("CCCCC(CC)COC(=O)c1cc2ccccc2oc1=O (stereo unspecified)", "active"),
    ("Cc1ccccc1C[n+]1ccccc1Br", "active"),
    ("Cc1c2c(c(C)c3c4c(oc13)CCCC4)C=NCC2", "inactive"),
    ("O=C1CN(/N=C\\c2ccc([N+](=O)[O-])o2)C(=O)N1", "inactive"),
    ("O=C(N/C(=C\\c1ccc(Br)cc1)c1nc2ccccc2[nH]1)c1ccccc1", "active"),
    ("O=[N+]([O-])c1ccc(CCCCc2ccc([N+](=O)[O-])cc2)cc1", "inactive"),
    ("O=C(O)/C(=C/c1ccccc1)c1ccc2ccccc2c1Br", "active"),
    ("O=C1C2=C(CCCC2)C(=O)C(Cl)C1Cl (stereo unspecified)", "active"),
    ("O=S(=O)(CCNCCCCC1CCCCC1)SCCNCCCCC1CCCCC1", "inactive"),
    ("COc1ccc(-c2c(CO)cc(OC)c(OC)c2OC)c(CO)c1", "active"),
    ("O=S1CCS(=O)C1c1ccccc1 (stereo unspecified)", "active"),
    ("O=C(c1ccc(Cl)cc1)C1N=NCC1c1ccccc1 (stereo unspecified)", "inactive"),
    ("O=S(=O)(CC(Br)Br)c1ccccc1", "active"),
    ("CCCCN(CCCC)CC(O)c1ccc(CCc2ccccc2)cc1 (stereo unspecified)", "active"),
    ("O=NN(CCCl)C(=O)NCCSSCCNC(=O)N(CCCl)N=O (tested in a mixture with another compound)", "inactive"),
    ("CC12CCc3ccccc3C1=Nc1ccccc12 (stereo unspecified)", "active"),
    ("Cc1ccc(Cl)cc1NC(=O)N(C)CCOC(=O)Nc1cccc(Cl)c1", "active"),
    ("Cc1cc(Cl)nc2ccc(Cc3ccc4nc(Cl)cc(C)c4c3)cc12", "inactive"),
    ("O=C(Cc1ccccc1)NNc1nc(NNC(=O)c2ccncc2)nc(Nc2ccccc2)n1", "inactive"),
    ("CCCCCCCCCCCCCCCC(=O)NCC[N+](C)(CC)CC", "inactive"),
    ("CC1=C(C(=O)Nc2cccc(Cl)c2)C(c2ccc([N+](=O)[O-])cc2)C(C(=O)Nc2cccc(Cl)c2)=C(C)N1", "inactive"),
    ("Cc1ccc(C)c(N2C/C(=N\\NC(=O)CC#N)C(c3nc4ccccc4s3)C(=O)C2=O)c1 (stereo unspecified)", "inactive"),
    ("CC(=O)Nc1[c-]cccc1.CC(=O)Nc1[c-]cccc1.CC(=O)O.CC(=O)O.[Pd].[Pd]", "active"),
    ("Oc1c(C(O)(c2ccccc2)c2ccc3ccccc3c2O)ccc2ccccc12", "active"),
    ("ON1CCc2c([nH]c3ccccc23)C1c1ccc(Cl)cc1 (stereo unspecified)", "inactive"),
    ("Clc1ccc(-c2nnn3ccccc23)cc1", "active"),
    ("O=C(O)CC(NC(=O)CP(=O)(O)O)C(=O)O.[NH-]C1CCCCC1[NH-].[Pt+2] (stereo unspecified)", "inactive"),
    ("Cc1cc(-c2ccccc2)c(C)c(-c2ccccc2)c1-c1ccccc1", "active"),
    ("COc1ccc2c(Cc3ccc(Cl)cc3)cncc2c1O", "active"),
    ("O=C(O)Cc1c(-c2noc(-c3ccccc3)c2CC(=O)O)noc1-c1ccccc1", "inactive"),
    ("CCN(CC)CCOc1ccc(NC(=S)Nc2ccc(OCC(C)C)cc2)cc1", "inactive"),
    ("COc1ccc(C(=O)Nc2ccccc2[N+](=O)[O-])cc1", "inactive"),
    ("Cc1cc(NCCCCCCNc2cc(C)nc3cc(N(C)C)ccc23)c2ccc(N(C)C)cc2n1", "inactive"),
    ("CCCCCCCCCCSCCO", "active"),
    ("CC1CCN(SSc2nc3ccccc3s2)CC1", "inactive"),
    ("CCOC(=O)C(=O)Nc1nc2c(s1)C(=O)c1ccccc1C2=O", "active"),
    ("COc1cccc(/C=C2\\CCCc3ccccc3C2=O)c1", "inactive"),
]
